Biological target: human APJ receptor (Homo sapiens)
Construct: expressed in transfected cells
Sequence (P35414 1-380): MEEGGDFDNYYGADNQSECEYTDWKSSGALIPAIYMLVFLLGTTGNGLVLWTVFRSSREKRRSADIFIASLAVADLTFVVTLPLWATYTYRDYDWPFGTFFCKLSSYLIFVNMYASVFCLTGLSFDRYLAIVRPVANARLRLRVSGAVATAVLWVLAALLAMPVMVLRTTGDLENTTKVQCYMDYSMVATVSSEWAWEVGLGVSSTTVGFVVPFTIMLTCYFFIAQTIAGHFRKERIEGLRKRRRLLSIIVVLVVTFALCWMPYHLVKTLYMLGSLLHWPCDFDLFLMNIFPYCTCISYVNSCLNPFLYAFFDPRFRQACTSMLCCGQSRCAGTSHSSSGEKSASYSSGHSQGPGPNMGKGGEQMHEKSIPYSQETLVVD
Assay: Intracellular cAMP accumulation assay (APJ hcAMP, HTRF)
Format: cell-based
Details: Table 1; HEK293 cells stably expressing human APJ receptor; inhibition of forskolin-mediated cAMP production; read-out: APJ hcAMP EC50
MEASURED PROPERTY: EC50

Here's what some known entries look like.
CCC[C@H](NC(=O)c1ccc(-c2c(Cl)cccc2-c2nc3ccccc3[nH]2)c(C(=O)O)c1)c1ccccc1OC (single isomer, unassigned); < 0.01 µM
COc1cc2nc(-c3cccc(Cl)c3-c3ccc(C(=O)NC(C4CCCCC4)C4CC4)cc3C(=O)O)[nH]c2cc1F (single isomer, unassigned); < 0.01 µM

Value of measured EC50 for the entry CCC[C@@H](NC(=O)c1ccc(-c2cc(Cl)ccc2-c2nc3c(F)cccc3[nH]2)c(C(=O)O)c1)c1ccccc1 : < 0.01 µM
